Reference for the values: patent US8815857B2

- procedure-summary: Assessment of solubility: HT solubility in pION buffer, UV spectrophotometry
- experimental-conditions: pION system solution buffer, pH 7.4, pH 7.4, aqueous buffer, kinetic from dmso stock, Solubility (pH 7.4), pH 7.4 buffer, 16-19 h incubation, 1.0% DMSO
measured-quantity: solubility

Illustrative cases are given below, each with its answer.
Cc1ccc(OCc2ccc(CN3CCOCC3)cc2C)c(-c2csc(N3CC[C@@H](C(=O)O)[C@@H](C)C3)n2)c1 (single isomer, unassigned) [Compound 50]	> 53 µg/mL
Cc1ccc(OCc2ccc(CN3CCOCC3)cc2C)c(-c2csc(N3CCCC(C(=O)O)C3)n2)c1 (stereo not drawn) [Compound 22]	> 63 µg/mL

Give the measured solubility of Cc1ccc(OCc2ccc(CN3CCS(=O)(=O)CC3)cc2C)c(-c2csc(N3CCC(CC(=O)O)CC3)n2)c1 [Compound 219] . 41 µg/mL

====

- procedure-summary: Assessment of solubility: HT solubility in pION buffer, UV spectrophotometry
- experimental-conditions: pION system solution buffer, pH 4.5, pH 4.5, aqueous buffer, kinetic from dmso stock, Solubility (pH 4.5), pH 4.5 buffer, 16-19 h incubation, 1.0% DMSO
measured-quantity: solubility (µg/mL)

1: Cc1ccc(OCc2ccc(CN3CCS(=O)(=O)CC3)cc2C#N)c(-c2csc(N3CCC(C(=O)O)CC3)n2)c1
2: Cc1cc(C(=O)N2CCCCC2)ccc1COc1ccc(C#N)cc1-c1csc(N2CCC(C(=O)O)CC2)n1
3: Cc1cc(C(=O)N2CCCCC2)ccc1COc1ccccc1-c1csc(N2CC3C(C2)C3C(=O)O)n1 (stereo not shown)
4: Cc1cc(CN2CCS(=O)(=O)CC2)ccc1COc1ccccc1-c1csc(N2CC3CCC(C2)C3C(=O)O)n1 (stereo not shown)
List these items ordered by solubility, big to small. Use the labels to give the ranking in the order requested. 3, 4, 1, 2
(3: 5.6 µg/mL, 4: 3.3 µg/mL, 1: 1.6 µg/mL, 2: 0.95 µg/mL)

====

- target-desc: Recombinant human soluble guanylate cyclase (sGC), alpha 1 / beta 1 subunits, heme-free (Homo sapiens, UniProt Q02108+Q02153)
- Construct: histidine tag (C); made in house; host or cells: Sf9 insect cells (baculovirus coinfection)
- procedure-summary: Molecular assay: cGMP formation by heme-free recombinant sGC (CisBio cGMP detection kit)
- Format: biochemical
- experimental-conditions: 300 pM heme-free sGC, 37° C., 60 min, cGMP readout; read-out: EC50 nM, Activity of Compounds in Molecular Assay
measured-quantity: EC50 (nM)

Known EC50 results, listed for orientation:
Cc1ccc(OCc2ccc(CN3CCN(C(=O)C4CC4)CC3)cc2C)c(-c2csc(N3CCC(C(=O)O)CC3)n2)c1	20
COCCCNC(=O)c1ccc(COc2ccc(C)cc2-c2csc(N3CCC(C(=O)O)CC3)n2)c(C)c1	1900

P: Cc1ccc(OCc2ccc(CN3CCS(=O)(=O)CC3)cc2C)c(-c2csc(N3CCC(C(=O)O)CC3)n2)c1
Q: Cc1ccc(OCc2ccc(C(=O)N3CCCCC3)cc2C)c(-c2csc([C@H]3CC[C@H](C(=O)O)CC3)n2)c1
Could you please tell me which of these two has the higher EC50: P or Q ? Indicate your choice by writing its label. Q
(Q: 1700 nM, P: 19 nM)

====

- procedure-summary: Assessment of solubility: HT solubility in pION buffer, UV spectrophotometry
- experimental-conditions: pH 6.8, aqueous buffer, kinetic from dmso stock, Solubility (pH 6.8), pH 6.8
measured-quantity: solubility (µg/mL)

Cc1ccc(OCc2ccc(C(=O)N3CCOCC3)cc2C#N)c(-c2csc(N3C[C@H]4CC[C@@H](C3)[C@H]4C(=O)O)n2)c1	70
Cc1ccc(OCc2ccc(CN3CCOCC3)cc2C)c(-c2csc(N3C[C@@H]4[C@H](C3)[C@@H]4C(=O)O)n2)c1	54

1: Cc1ccc(OCc2ccc(C(=O)N3CCCCC3)cc2C)c(-c2csc(N3CC(CC(=O)O)C3)n2)c1
2: COCC1CN(Cc2ccc(COc3ccc(C)cc3-c3csc(N4C[C@H]5CC[C@@H](C4)[C@H]5C(=O)O)n3)c(C#N)c2)CCO1 (stereo partly drawn)
3: Cc1ccc(OCc2ccc(CN3CCN(C(=O)C4CC4)CC3)cc2C)c(-c2csc(N3C[C@H]4CC[C@@H](C3)[C@H]4C(=O)O)n2)c1
4: Cc1ccc(OCc2ccc(CN3CCOCC3C)cc2C#N)c(-c2csc(N3C[C@H]4CC[C@@H](C3)[C@H]4C(=O)O)n2)c1 (stereo partly drawn)
Rank entries according to their solubility, from the largest number down. Answer with the labels in sequence, matching the requested order. 1, 2, 4, 3
(1: 56 µg/mL, 2: 32 µg/mL, 4: 5.8 µg/mL, 3: 0.42 µg/mL)

====

- procedure-summary: Assessment of solubility: HT solubility in pION buffer, UV spectrophotometry
- experimental-conditions: pION system solution buffer, pH 4.5, pH 4.5, aqueous buffer, kinetic from dmso stock, Solubility (pH 4.5), pH 4.5 buffer, 16-19 h incubation, 1.0% DMSO
measured-quantity: solubility (µg/mL)

Cc1cc(C(=O)N2CCCCC2)ccc1COc1ccc(F)cc1-c1csc(N2CC3C(C2)C3C(=O)O)n1 (stereo not shown)	0.3
Cc1ccc(OCc2ccc(CN3CCN(C(=O)C4CC4)CC3)cc2C)c(-c2csc(N3CC(C4(C(=O)O)CC4)C3)n2)c1	6

1: Cc1cc(CN2CCC(O)CC2)ccc1COc1ccc(C#N)cc1-c1csc(N2CCC(C(=O)O)CC2)n1
2: Cc1ccc(OCc2ccc(C(=O)N3CCS(=O)(=O)CC3)cc2C)c(-c2csc(N3CCC(C(=O)O)CC3)n2)c1
3: Cc1ccc(OCc2ccc(C(=O)N3CCCC(C)(O)C3)cc2C)c(-c2csc(N3C[C@H]4CC[C@@H](C3)[C@H]4C(=O)O)n2)c1 (stereo partly shown)
Order each entry by recorded solubility, climbing from the minimum. Submit the labels in the order that the ranking request calls for. 3, 2, 1

====

- target-desc: Recombinant human soluble guanylate cyclase (sGC), alpha 1 / beta 1 subunits, heme-free (Homo sapiens, UniProt Q02108+Q02153)
- Construct: histidine tag (C); made in house; host or cells: Sf9 insect cells (baculovirus coinfection)
- Sequence (Q02108 1-690 partner): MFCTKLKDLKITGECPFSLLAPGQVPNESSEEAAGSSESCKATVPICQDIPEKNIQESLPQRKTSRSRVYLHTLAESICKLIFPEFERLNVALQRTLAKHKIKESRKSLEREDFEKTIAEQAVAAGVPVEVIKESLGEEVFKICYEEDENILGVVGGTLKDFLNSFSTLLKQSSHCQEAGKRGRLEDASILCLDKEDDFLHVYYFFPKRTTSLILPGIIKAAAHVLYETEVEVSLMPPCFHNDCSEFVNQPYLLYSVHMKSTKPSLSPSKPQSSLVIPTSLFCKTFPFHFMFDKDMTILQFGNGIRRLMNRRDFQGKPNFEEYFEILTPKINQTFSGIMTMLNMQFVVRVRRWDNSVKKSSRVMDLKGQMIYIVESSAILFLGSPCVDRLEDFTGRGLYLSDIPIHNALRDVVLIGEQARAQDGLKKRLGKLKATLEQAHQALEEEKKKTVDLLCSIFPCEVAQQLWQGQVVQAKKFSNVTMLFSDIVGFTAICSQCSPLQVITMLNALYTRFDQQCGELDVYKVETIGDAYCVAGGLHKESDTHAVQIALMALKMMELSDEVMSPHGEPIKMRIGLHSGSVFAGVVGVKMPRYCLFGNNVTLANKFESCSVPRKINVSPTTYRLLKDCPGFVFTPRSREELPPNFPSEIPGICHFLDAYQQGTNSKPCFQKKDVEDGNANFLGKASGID
- Sequence (Q02153 1-619): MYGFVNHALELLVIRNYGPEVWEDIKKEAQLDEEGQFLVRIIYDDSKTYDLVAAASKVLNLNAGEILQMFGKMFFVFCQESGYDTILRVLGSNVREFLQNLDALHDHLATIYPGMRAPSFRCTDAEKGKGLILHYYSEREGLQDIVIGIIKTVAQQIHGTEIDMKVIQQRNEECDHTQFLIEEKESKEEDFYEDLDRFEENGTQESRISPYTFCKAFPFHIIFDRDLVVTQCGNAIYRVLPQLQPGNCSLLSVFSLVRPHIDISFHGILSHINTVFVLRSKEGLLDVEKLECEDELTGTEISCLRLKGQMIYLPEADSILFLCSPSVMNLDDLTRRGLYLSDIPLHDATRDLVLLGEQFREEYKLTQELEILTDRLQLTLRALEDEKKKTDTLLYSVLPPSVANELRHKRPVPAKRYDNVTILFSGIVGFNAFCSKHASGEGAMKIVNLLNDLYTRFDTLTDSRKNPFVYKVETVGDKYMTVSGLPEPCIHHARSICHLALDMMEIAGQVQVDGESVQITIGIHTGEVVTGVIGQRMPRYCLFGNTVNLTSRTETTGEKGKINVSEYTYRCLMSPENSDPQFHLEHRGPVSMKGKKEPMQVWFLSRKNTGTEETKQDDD
- procedure-summary: Molecular assay: cGMP formation by heme-free recombinant sGC (CisBio cGMP detection kit)
- Format: biochemical
- experimental-conditions: 300 pM heme-free sGC, 37° C., 60 min, cGMP readout; read-out: EC50 nM, Activity of Compounds in Molecular Assay
- Experimental: Recombinant human soluble guanylate cyclase (sGC) is purified from Sf9 insect cells coinfected with baculoviruses expressing the alpha 1 or beta 1 subunit of sGC, both with a C-terminal histidine tag. […] sGC catalyzes the conversion of guanosine-5′-triphosphate (GTP) to cyclic guanosine monophosphate (cGMP). The activity of sGC is measured in vitro using the commercially available CisBio cGMP detection kit (catalog # 62GM2PEB) in a 384 well format. […]
measured-quantity: EC50 (nM)

Look over these answered cases.
Cc1cc(CN2CCS(=O)(=O)CC2)ccc1COc1ccccc1-c1csc(N2CC3C(C2)C3C(=O)O)n1 (stereo not shown)	3100
COCCCN(C)C(=O)c1ccc(COc2ccc(C)cc2-c2csc(N3CCC(C(=O)O)CC3)n2)c(C#N)c1	78
Cc1ccc(OCc2ccc(C(=O)N3CCCC3)cc2C#N)c(-c2csc(N3CCC(C(=O)O)CC3)n2)c1	61

a: Cc1ccc(OCc2ccc(C(=O)N3CCC(F)(F)CC3)cc2C)c(-c2csc(N3CCC(C(=O)O)CC3)n2)c1
b: Cc1cc(CN2CCS(=O)(=O)CC2)ccc1COc1ccc(C#N)cc1-c1csc(N2CCC(C(=O)O)C(C(F)(F)F)C2)n1 (stereo not shown)
Would you mind telling me which has the lower recorded EC50 between a and b ? State your choice using its label. a

P: Cc1ccc(OCc2ccc(CN3CCOCC3)cc2C)c(-c2csc(N3CCC(CC(=O)O)C3)n2)c1 (stereo not shown)
Q: Cc1ccc(OCc2ccc(CN3CCOCC3)cc2C)c(-c2csc(C3=CCC(C(=O)O)CC3)n2)c1 (stereo not shown)
Among P and Q , whose measured EC50 is the smaller figure? Your answer should be the label attached to the chosen record. P
(P: 3200 nM, Q: 4900 nM)
